Please provide measured Ki for the entries that follow.
molecular target: Neuronal acetylcholine receptor; alpha3/beta4 (Rattus norvegicus, UniProt P04757+P12392); assay: Displacement of [3H]epibatidine from rat alpha3beta4 nAChR transfected in HEK293 cells by liquid scintillation counting
Sequence (P04757 whole entry): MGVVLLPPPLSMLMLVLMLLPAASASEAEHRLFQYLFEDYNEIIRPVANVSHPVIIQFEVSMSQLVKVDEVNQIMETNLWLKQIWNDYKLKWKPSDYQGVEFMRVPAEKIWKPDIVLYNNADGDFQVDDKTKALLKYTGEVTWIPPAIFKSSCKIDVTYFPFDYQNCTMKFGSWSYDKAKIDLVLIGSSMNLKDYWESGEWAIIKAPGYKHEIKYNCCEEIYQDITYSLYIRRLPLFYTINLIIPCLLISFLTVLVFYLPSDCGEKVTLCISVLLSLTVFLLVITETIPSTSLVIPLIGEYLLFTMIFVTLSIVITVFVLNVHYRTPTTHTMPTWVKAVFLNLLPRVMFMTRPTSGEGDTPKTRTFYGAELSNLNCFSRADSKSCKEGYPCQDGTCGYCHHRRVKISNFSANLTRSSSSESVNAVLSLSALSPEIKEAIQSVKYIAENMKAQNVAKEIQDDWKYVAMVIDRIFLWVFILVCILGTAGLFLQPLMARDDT
Sequence (P12392 whole entry): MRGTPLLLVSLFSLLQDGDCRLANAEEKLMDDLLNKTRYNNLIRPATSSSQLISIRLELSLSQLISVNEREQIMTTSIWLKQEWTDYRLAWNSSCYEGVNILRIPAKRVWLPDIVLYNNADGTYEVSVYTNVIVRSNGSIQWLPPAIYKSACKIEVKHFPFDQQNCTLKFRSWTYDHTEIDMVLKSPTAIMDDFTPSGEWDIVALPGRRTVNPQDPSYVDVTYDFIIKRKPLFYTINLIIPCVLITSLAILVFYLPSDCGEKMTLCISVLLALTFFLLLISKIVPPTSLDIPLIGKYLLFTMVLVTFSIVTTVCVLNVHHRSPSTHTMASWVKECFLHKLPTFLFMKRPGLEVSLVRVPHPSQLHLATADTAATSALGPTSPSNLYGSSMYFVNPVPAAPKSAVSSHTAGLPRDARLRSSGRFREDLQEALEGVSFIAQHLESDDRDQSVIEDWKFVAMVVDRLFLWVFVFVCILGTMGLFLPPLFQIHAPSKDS

Result for O=C(NCCCCN1CCCCC1)c1ccc(-c2ccccc2)cc1 , tested on Neuronal acetylcholine receptor; alpha3/beta4 (Rattus norvegicus, UniProt P04757+P12392), Ki: > 10 µM

Result for c1cncc(-c2ccc(N3CCOCC3)cc2)c1 , tested on Neuronal acetylcholine receptor; alpha3/beta4 (Rattus norvegicus, UniProt P04757+P12392), Ki: > 10 µM

Result for O=C(CCCCN1CCCCC1)Nc1ccc(-c2cccnc2)cc1 , tested on Neuronal acetylcholine receptor; alpha3/beta4 (Rattus norvegicus, UniProt P04757+P12392), Ki: > 10 µM

Result for O=C(NCCCCN1CCCCC1)c1ccc(-c2cccnc2)cc1 , tested on Neuronal acetylcholine receptor; alpha3/beta4 (Rattus norvegicus, UniProt P04757+P12392), Ki: > 50 µM

Result for CN1CCN(c2ccc(-c3ccccc3)cc2)CC1 , tested on Neuronal acetylcholine receptor; alpha3/beta4 (Rattus norvegicus, UniProt P04757+P12392), Ki: > 10 µM

Result for O=C(CCCCN1CCOCC1)Nc1ccc(-c2ccccc2)nn1 , tested on Neuronal acetylcholine receptor; alpha3/beta4 (Rattus norvegicus, UniProt P04757+P12392), Ki: > 10 µM

Result for c1ccc(-c2ccc(N3CCOCC3)cc2)cc1 , tested on Neuronal acetylcholine receptor; alpha3/beta4 (Rattus norvegicus, UniProt P04757+P12392), Ki: > 10 µM

Result for CN1C[C@@H]2C[C@H]1CN2CCCCC(=O)Nc1ccc(-c2ccccc2)cc1 , tested on Neuronal acetylcholine receptor; alpha3/beta4 (Rattus norvegicus, UniProt P04757+P12392), Ki: > 10 µM

Result for CN1C[C@@H]2C[C@H]1CN2CCCCNC(=O)c1ccc(-c2ccccc2)cc1 , tested on Neuronal acetylcholine receptor; alpha3/beta4 (Rattus norvegicus, UniProt P04757+P12392), Ki: > 10 µM

Result for O=C(CCCCN1CCOCC1)Nc1ccc(-c2ccccn2)cc1 , tested on Neuronal acetylcholine receptor; alpha3/beta4 (Rattus norvegicus, UniProt P04757+P12392), Ki: > 10 µM

Result for CN1CCN(CCCCNC(=O)c2ccc(-c3ccccc3)cc2)CC1 , tested on Neuronal acetylcholine receptor; alpha3/beta4 (Rattus norvegicus, UniProt P04757+P12392), Ki: > 100 µM
